system: mouse plasma stability, percent remaining; assay: second set, compound stability in murine plasma, biochemical ADME (AID 624419); conditions: at 1 µM
OBSERVED PROPERTY: plasma stability (%)

>>> df
                                    compound  result_number
 0                O=C(O)c1ccccc1OCc1ccccc1Br            100
 1  CN(C)C1=C(Cl)C(=O)N(c2ccc(Cl)c(Cl)c2)C1=O           6.46
 2  O=c1[nH]c2c(s1)C(c1cccnc1)C1C3CCC(C3)C1S2 (stereo unspecified)            100
 3    c1ccc(-c2nnc(N3CCOCC3)nc2-c2ccccc2)cc1            100
 4  Cc1ccc(S(=O)(=O)C(c2ccccc2)c2c(C)noc2C)cc1 (stereo unspecified)           97.8
 5  Cc1cc(C)nc(-n2nc(C)c(Sc3ccc(F)cc3)c2N)n1           93.6
 6      CCCc1cc(C(=O)N(C2CCCCC2)C2CCCCC2)no1             84
 7            COc1nc(-c2ccccc2)nnc1-c1ccccc1            100
 8  O=[N+]([O-])c1ccc(CN2CCOCCOCCN(Cc3ccc([N+](=O)[O-])cc3)CCOCC2)cc1            100
 9         CSc1nc(-c2ccc(C)cc2)nc(C(Cl)Cl)n1           84.8
10  COc1ccc(C2c3c(ncn(CCN4CCOCC4)c3=N)Oc3ccc4ccccc4c32)cc1OC (stereo unspecified)            100

###

tested on: mouse plasma stability, percent remaining; experiment: second set, compound stability in murine plasma, biochemical ADME (AID 624419); conditions: at 1 µM
Quick rule for you: plasma stability under 90% gets 1, anything else gets 0.

>>> print(df.to_string())
                                    compound  class_label
 0  CN(C)c1nc(N)nc(CSc2nnnn2-c2cccc3ccccc23)n1            0
 1  O=C1C2CC=CCC2C(=O)N1c1n[nH]c(-c2ccccc2)n1 (stereo not drawn)            1
 2  O=C(CCNS(=O)(=O)c1cccc2nsnc12)N1CCN(c2ccccn2)CC1            0
 3  COc1ccc(S(=O)(=O)n2nc(OC(=O)c3ccccc3)cc2N)cc1            1
 4  COc1ccc(OC)c(S(=O)(=O)Nc2cnc3ccccc3c2)c1            0
 5       CCCC(=O)Nc1cccc(NC(=O)c2ccccc2Br)c1            1
 6              O=C(CSc1cccc2cccnc12)N1CCCC1            0
 7    COc1ccccc1N(/N=C1\Sc2ccccc2C1=O)C(C)=O            1
 8  C/C=C/Cn1c(SCCCc2ccccc2)nc2c1c(=O)[nH]c(=O)n2C            0
 9             COc1ccc(CNCc2cccc3ccccc23)cc1            1
10  COc1cccc(-c2nc(-c3ccc(NC(=O)Cc4ccccc4OC)cc3)no2)c1            0
11          CCCc1nc2c(=O)n(C)c(=O)nc-2n(C)n1            1
12  CCOc1ccc(NC(=S)N2CCC(C(O)(c3ccccc3)c3ccccc3)CC2)cc1            1
13  CC(=O)c1ccc(N2CCN(S(=O)(=O)c3ccc4c(c3)CC(=O)N4)CC2)cc1            0
14  Cc1nc(SCc2nc3ccccc3[nH]2)c2oc3ccccc3c2n1            0
15         Cn1nnnc1Sc1ncnc2scc(-c3ccccc3)c12            1
16  Cc1ccnc(NC(=O)CCCOc2cc(=O)n(C)c3ccccc23)c1            1
17         CCCOc1ccc(-c2nc(OC)c3ccccc3n2)cc1            0
18  CCN1CCN(c2nc3ccccc3nc2C(C#N)C(=O)OC2CCCCC2)CC1 (stereo not drawn)            1
